Attribution: paper PMC12136788

Molecular target: T1, UNK ZnF1-3 (human, UniProt Q9C0B0 31-174)
T1 sequence: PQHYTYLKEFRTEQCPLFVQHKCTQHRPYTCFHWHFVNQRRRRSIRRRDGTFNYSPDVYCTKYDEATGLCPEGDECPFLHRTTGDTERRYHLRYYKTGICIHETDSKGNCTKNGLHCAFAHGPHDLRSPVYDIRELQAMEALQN
Assay: nsRBNS (natural sequence RNA bind-n-seq); RBNS binding buffer (assumed for nsRBNS): 25 mM Tris pH 7.5, 150 mM KCl, 3 mM MgCl2, 0.01% Triton X-100, 500 ug/ml BSA, 20 U/ml SUPERase-In, 4 C; UNK is unkempt and MSI1 is Musashi-1; names of the RNAs are library labels; protein concentration not given here; high values mean tight binding
Whole data set: some 24,000 sequences, median “enrichment r” near 0.99, cut for the highest 2% near 3.7. Only a selection was taken, and the highest values are over-represented in it overall.
readout-name: log10 binding signal (log10 of the value in enrichment R)

binder	readout-name	measured-number
chr19:16212804:16212805:+_ENSG00000167460_ENST00000300933|hu_mus|hu_hu_hu_mus_False|38_98 (ssRNA) RNA: GGGAGUUCUACAGUCCGACGAUCAACAAUUCUGGAGAAGAACAUCAAUGUAACAUGGAACAGCAUUAAAGCUCAGUCAGAAGGCACAUGGGCAACAAUGACUAUUUCAGCAUUCUCGCUUGGAAUGCUUAAAGACAAUCUGUUCAACAGAGGAUUGAGCAUCA	log10 binding signal	0.06
chrX:20248820:20248821:+_ENSMUSG00000001924_ENSMUST00000001989|mus_mus|mus_mus_mus_hu_True|58_98 (ssRNA) RNA: GGGAGUUCUACAGUCCGACGAUCGGCGAAGUCCGUCAUCACAAAGUCAGGUUCUGCCAGUGAGGCCACCAAGGAUUUAAAACUAAUCUUCUUAGGUACUUUGACCUGACUGACGAUGCCUCCACGGAUGUAGUCGGAGAAGUUCAACAGAGGAUUGAGCAUCA	log10 binding signal	-0.06
142899929_142900494_654_CDS_ENSMUSG00000031004_ENSMUST00000033310|mouse|control|control (ssRNA) RNA: GGGAGUUCUACAGUCCGACGAUCAAGGCCCUUGGCAUACACAAAAGAUCUUCUUGAAGCAGUCAUUUUUGAAGCUUUGGUAUCUUGACCUUCCCCAUCAGGGUCAGCACAGAAGCUAUCUCUUGAGGCUCGCCUUGAUGGUUCCAACAGAGGAUUGAGCAUCA	log10 binding signal	-0.28
chr2:35037708:35037709:-_ENSMUSG00000026878_ENSMUST00000028238|mus_hu|FALSE|FALSE (ssRNA) RNA: GGGAGUUCUACAGUCCGACGAUCCUGUUUUUACAACAGAGUUUUUUCUUUUUUUUUAAUUAAACCCAGUAAGAUGUACAGAAGACAAUGAGGCAGUAAAAAGUACUGCUUCCAACAGACAGAGGUGAAAGGUCAAAUGAGGGGCAACAGAGGAUUGAGCAUCA	log10 binding signal	0.21
chr13:99559765:99559766:-_ENSMUSG00000041685_ENSMUST00000040340|mus_mus|motif|central (ssRNA) RNA: GGGAGUUCUACAGUCCGACGAUCCUGAACUUCCUUUAUUAAUUCCUGUAAUUUUCUAACAAGAUCCAAAUGACAAUUUGCGGAUUUCUCUGUAGAUGUUUUGAAUACAUCCCACAUUGGUGCAAAUGUUCCAAGUUGUGAAUACAACAGAGGAUUGAGCAUCA	log10 binding signal	-0.21
chr1:60041781:60041782:+_ENSMUSG00000041040_ENSMUST00000036540|mus_mus|motif|central (ssRNA) RNA: GGGAGUUCUACAGUCCGACGAUCUUAAGGAGUGAAUCUCAACUUUACAAAUUUAGUAAUGGCAAGUUUACUUUAGUUUCCGGAAAGAAAACCUCAGGAUCUCAGUUCAAUCCCAGACAGAGAAAGCUCUCCAUGGGGCCACUGCAACAGAGGAUUGAGCAUCA	log10 binding signal	-0.04
chr2:216981417:216981418:+_ENSG00000079246_ENST00000392132|hu_hu|hu_hu_hu_mus_True|58_68 (ssRNA) RNA: GGGAGUUCUACAGUCCGACGAUCCUGAUACUGGUCCUUGCCAGCAAGGGCAUUAUCAGUGCCAUCUGUACCAAACAGGACUAAAGCAAUCUCAUCUUUGCUCUCCGAAAAUACCUGUCGUUGGACAAACAUAGUCAUCACUUUCAACAGAGGAUUGAGCAUCA	log10 binding signal	-0.17
chr11:6247107:6247108:+_ENSMUSG00000020456_ENSMUST00000003461|mus_mus|FALSE|FALSE (ssRNA) RNA: GGGAGUUCUACAGUCCGACGAUCAAACAUAGGUUCGUCCAUCUCAUUGUGGCCAUUUCGUCGAUAACACACCAGAUCAACUACAACAUCCUUGUGGAAGGUGUUUCUCCACUCAGCUGCCACCUUGCAUACAUACAUGACAGCCAACAGAGGAUUGAGCAUCA	log10 binding signal	-0.12
chr11:75578338:75578339:+_ENSMUSG00000020849_ENSMUST00000067664|perfect_dup|FALSE|FALSE (ssRNA) RNA: GGGAGUUCUACAGUCCGACGAUCUUAAGAACUUUUGAAAACUGUUUAAAAAAAAAAAAAAAAAACCAACAGGGCAGGAACCUAAAUUCUGAGACCAAAUGUAAAAGUCAGAUUUGGUGGUUCUCAGUGACAAUGGGGAGUUUCCAACAGAGGAUUGAGCAUCA	log10 binding signal	0.67
chr16:45382771:45382772:-_ENSMUSG00000022661_ENSMUST00000163230|mus_mus|mus_mus_mus_hu_True|18_38 (ssRNA) RNA: GGGAGUUCUACAGUCCGACGAUCCUGGGUCAUGUUAUAAGACAAAUGGACAGGGAGGGCAUGCUUCUCAAAAAAUGUGAGCUAUUGUCUAAGACUAACAAUAUUGCUCUAGCUAUAUAAAAAUAAGAAAUGAAUAAGUUAAGACAACAGAGGAUUGAGCAUCA	log10 binding signal	1.02
chr4:76721835:76721836:+_ENSG00000138768_ENST00000264904|hu_mus|hu_hu_hu_mus_True|8_28 (ssRNA) RNA: GGGAGUUCUACAGUCCGACGAUCGUUUGGCUGGGGUUUCUGAGACGCUCUGGAAUAUAACUCAUGUUUGCUAAUAAAUCCUAGUUUCUCUAUGAAAUUCUCUUUGCAAUCCUCUUCCUCUAUUAGUGUUUUAGCUUUCUCUUUCAACAGAGGAUUGAGCAUCA	log10 binding signal	-0.23
chr2:5814250:5814251:-_ENSMUSG00000025816_ENSMUST00000102981|mus_hu|mus_mus_mus_hu_True|58_58 (ssRNA) RNA: GGGAGUUCUACAGUCCGACGAUCUUCCUUUCCGGUUUCUGAAUUUCUGGUAGAACUGCACAGAAUGGUUUGAUAACUUCUAAAAACUUGAUGCCCAUGGCUGCUGCUGGGGAGGCCCAGGGGGAAACCGCGGCCUCGGCGCUGCAACAGAGGAUUGAGCAUCA	log10 binding signal	0.08
80410323_80421071_410_CDS_ENSMUSG00000027002_ENSMUST00000028386|mouse|control|control (ssRNA) RNA: GGGAGUUCUACAGUCCGACGAUCCACAGCAGAUUCCAGGUUUUUGUCAAUAAGGUAGGAGGGUUUAGCCUUGGGGUCGCCACAUGCCUUCUUGAUGUUGUAGAGGCGCGUGAGCAUGCCGACGCCCCGGUCGUUGAGGAUGGUCAACAGAGGAUUGAGCAUCA	log10 binding signal	-0.07
